Source of measurements: patent US9169241B2

tested on: U118; experiment: Apoptosis assay (Cellomics, nucleus condensation); assay type: cell-based; conditions: Table III, read-out: Apoptosis induction in U118
pIC50: −log10 of the molar value.
quantity measured: pIC50

1. COc1cc2c(Oc3ccc(NS(=O)(=O)c4ccccc4C(F)(F)F)cc3F)ccnc2cc1OCCCN(C)C : 4.30 to 4.90

For "COc1cc2c(Oc3ccc(NS(=O)(=O)c4cccc(Oc5ccccc5)c4)cc3F)ccnc2cc1OCCCN1CCCCC1" the molecule record lists pIC50 as ≥ 4.90

For "COc1cc2c(Oc3ccc(NS(=O)(=O)c4ccccc4F)cc3F)ccnc2cc1OCCCN1CCN(C)CC1" the molecule record lists pIC50 as 4.30 to 4.90

For COc1cc2c(Oc3ccc(NS(=O)(=O)c4cccc(Oc5ccccc5)c4)cc3F)ccnc2cc1OCCCN1CCCC(C)C1 (stereo not shown) the molecule record lists pIC50 as ≥ 4.90

For COc1cc2c(Oc3ccc(NS(=O)(=O)c4ccccc4Cl)cc3F)ccnc2cc1OCCCN1CCCC(C)C1 (stereo not shown) the molecule record lists pIC50 as ≥ 4.90

For COc1cc2c(Oc3ccc(NS(=O)(=O)c4ccc(F)c(Cl)c4)cc3F)ccnc2cc1OCCCN1CCCC(C)C1 (stereo not shown) the molecule record lists pIC50 as ≥ 4.90

For "COc1cc2c(Oc3ccc(NS(=O)(=O)c4ccccc4OC)cc3F)ccnc2cc1OCCCN1CCN(C)CC1" the molecule record lists pIC50 as 4.30 to 4.90

----------
test system: Panc-1; experiment: Cell vitality assay (ATP assay, CellTiter-Glo); assay type: cell-based; settings: Homo sapiens, Table IIb
pIC50: −log10 of the molar value.
quantity measured: pIC50

Previously resolved entries follow.
1) COc1cc2c(Oc3ccc(NS(=O)(=O)c4ccccc4C(F)(F)F)cc3F)ccnc2cc1OCCCN1CCN(C)CC1 [Example 24] : 4.30 to 4.90
2) COC(=O)c1sccc1S(=O)(=O)Nc1ccc(Oc2ccnc3cc(OCCCN4CCCC(C)C4)c(OC)cc23)c(F)c1 (stereo not shown) [Example 66] : ≥ 4.90
3) COc1cc2c(Oc3ccc(NS(=O)(=O)c4cc(F)ccc4F)cc3F)ccnc2cc1OCCCN1CCCCC1 [Example 1] : 4.30 to 4.90

Now turn to the next compound.
Given the compound COc1cc2c(Oc3ccc(NS(=O)(=O)c4cc(F)ccc4F)cc3F)ccnc2cc1OCCCN1CCN(C)CC1 [Example 12] and test system Panc-1, the measured pIC50 is 4.30 to 4.90

----------
test system: Hs578T; test: Matrigel outgrowth assay/branching assay; assay type: cell-based; conditions: Homo sapiens, Hs-578T; HS578T cell line; Table Ib; read-out: Total branching inhibition in Matrigel HS578T
As shown below, each of these molecules has a reported IC50 value.

Previously resolved entries follow.
1. COc1cc2c(Oc3ccc(NS(=O)(=O)c4cc(F)ccc4F)cc3F)ccnc2cc1OCCCN1CCCCC1 [Example 1] : ≤ 10 µM
2. COc1cc2c(Oc3ccc(NS(=O)(=O)c4cc(F)ccc4F)cc3F)ccnc2cc1OCCCCN1CCOCC1 [Example 83] : ≤ 10 µM
3. COC(=O)c1sccc1S(=O)(=O)Nc1ccc(Oc2ccnc3cc(OCCCN(C)C)c(OC)cc23)c(F)c1 [Example 184] : 10 to 25 µM
4. COc1cc2c(Oc3ccc(NS(=O)(=O)c4c(Cl)cccc4Cl)cc3F)ccnc2cc1OCCCN1CCN(C)CC1 [Example 32] : ≤ 10 µM
5. COc1cc2c(Oc3ccc(NS(=O)(=O)c4cccc(C(F)(F)F)c4)cc3F)ccnc2cc1OCCCN1CCCCC1 [Example 5] : 10 to 25 µM
6. O=S(=O)(Nc1ccc(Oc2ccnc3cc(OCCCCN4CCOCC4)ccc23)c(F)c1)c1cc(F)ccc1F [Example 84] : ≤ 10 µM
7. COc1cc2c(Oc3ccc(NS(=O)(=O)c4ccn(C)n4)cc3F)ccnc2cc1OCCCN1CCC(C)CC1 [Example 164] : 10 to 25 µM
8. COc1cc2c(Oc3ccc(Cl)c(NS(=O)(=O)c4c(Cl)cccc4Cl)c3)ccnc2cc1OCCCN1CCC(C)CC1 [Example 198] : 10 to 25 µM
9. COc1ccc2nccc(Oc3ccc(NS(=O)(=O)c4ccc5ccccc5c4)cc3F)c2c1 [Example 205] : 10 to 25 µM
10. COc1cc2c(Oc3ccc(NS(=O)(=O)c4ccccc4C(F)(F)F)cc3F)ccnc2cc1OCCCN1CCCCC1C (stereo not drawn) [Example 99] : ≤ 10 µM

For COc1cc2c(Oc3ccc(NS(=O)(=O)c4ccccc4OC(F)(F)F)cc3F)ccnc2cc1OCCCN1CCCCC1 [Example 78] the molecule record lists IC50 as ≤ 10 µM

For COc1cc2c(Oc3ccc(NS(=O)(=O)c4ccccc4)cc3F)ccnc2cc1OCCCN1CCCC(C)C1 (stereo not drawn) [Example 36] the molecule record lists IC50 as 10 to 25 µM

For COc1cc2c(Oc3ccc(NS(=O)(=O)c4cccc(-c5ccccc5)c4)cc3F)ccnc2cc1OCCCN1CCCCC1 [Example 8] the molecule record lists IC50 as ≤ 10 µM

For COc1cc2c(Oc3ccc(Cl)c(NS(=O)(=O)c4ccccc4OC(F)(F)F)c3)ccnc2cc1OCCCN1CCC(C)CC1 [Example 196] the molecule record lists IC50 as 10 to 25 µM

For COc1cc2c(Oc3ccc(NS(=O)(=O)c4ccccc4C(F)(F)F)cc3F)ccnc2cc1OCCCNC1CCOCC1 [Example 95] the molecule record lists IC50 as ≤ 10 µM
